Source of measurements: PubChem BioAssay (NCATS)

Tested on: Es-2
test: Primary qHTS to identify gynecologic anti-cancer compounds using libraries of approved drugs and bioactive compounds (AID 1345084); note: nearly all actives have a fitted effect of over 55% in size
run.conditions: Gynecologic cancer cell panel viability, ATPlite luminescence, 48 h; series mostly up to 57.5 µM
Results filed as inconclusive are left out. Activity calls are given as the source filed them. Calls come from the whole dose curve; as a rule, active = well fitted cell-killing curve with a large enough effect; inconclusive = small, poorly fitted or top-dose-only effect, or effect the other way; inactive = flat fitted curve, though single readings scatter.
Outcome codes: 1.0 for active, 0.0 for inactive

# molecule, label
rows = [
    ("C=CC1(C)C=C2C(=O)OC(=O)C3=C(CCCC3(C)C)C2(O)CC1 (stereo unspecified)", 0.0),
    ("COC(=O)N(C)c1c(N)nc(-c2nn(Cc3ccccc3F)c3ncccc23)nc1N", 0.0),
    ("COc1ccc(N2CCOCC2)c2sc(NC(=O)N3CCC(C)(O)CC3)nc12", 0.0),
    ("COc1cc(/C=C/C(=O)O[C@H]2[C@H](O)[C@@H](CO)O[C@@]2(CO)O[C@H]2O[C@H](CO)[C@@H](O)[C@H](O)[C@H]2O)ccc1O", 0.0),
    ("CC1(C)CC2=C3C=CC4C5(C)CCC(O)C(C)(C)C5CCC4(C)C3(C)CCC2(C)C(O)C1 (stereo unspecified)", 0.0),
    ("CC(C)C(=O)OC[C@H]1O[C@H](O[C@H]2O[C@H](CO)[C@@H](O)[C@H](O)[C@H]2O)[C@H](O)[C@@H](O)[C@@H]1O", 0.0),
    ("C=C1CN(Cc2ccc(C(=O)Nc3ccccc3N)cc2)C(=O)c2ccccc21", 1.0),
    ("COc1ccc(C(=O)Nc2ncc(-c3ccc(C(=O)O)cc3)s2)cc1", 1.0),
    ("CSc1ccc(C(=O)N[C@@H]2CCCC[C@@H]2NC(=O)CNC(=O)c2cc(C(F)(F)F)ccc2NC(=O)NC(C)C)cc1", 0.0),
    ("C[C@]1(CO)CCC[C@]2(C)C3=C(CCC12)COC3 (stereo partly specified)", 0.0),
    ("O=C(CCc1ccccc1)N1CCC(O)(Cn2cnc3cc(Cl)ccc3c2=O)CC1", 0.0),
    ("CC[C@]12C=CCN3CC[C@@]4(c5cc([C@@]6(C(=O)OC)C[C@H]7C[C@@H](C(C)(F)F)CN(Cc8c6[nH]c6ccccc86)C7)c(OC)cc5N(C)[C@H]4[C@@](O)(C(=O)OC)[C@@H]1OC(C)=O)[C@@H]32", 1.0),
    ("O=C(CCc1nnc2n(Cc3ccc(Cl)cc3)c(=O)c3ccccc3n12)NCCC1=CCCCC1", 0.0),
    ("Cc1cc(C(N)=O)ccc1-n1c(CCC(=O)O)ccc1-c1ccc(-n2ccnc2)cc1", 0.0),
    ("CCNC(=O)C1OC(n2cnc3c(N)nc(NCCc4ccc(CCC(=O)O)cc4)nc32)C(O)C1O (stereo unspecified)", 0.0),
    ("C=C(C(=O)O)[C@@H]1CC[C@@]2(C)CC[C@H](O)[C@@]2(C(C)=O)C1", 0.0),
    ("Cc1cc(NC(=O)Nc2ccc(F)c(F)c2)n(-c2ccccc2)n1", 0.0),
    ("COc1cc(Br)c(S(=O)(=O)Nc2ccc(C(F)(F)F)c(O[C@@H]3CCN(C)C3)c2)cc1OC", 0.0),
    ("COc1cc2ncnc(Nc3ccc(O)cc3)c2cc1OC", 0.0),
    ("COC(C(=O)N1Cc2[nH]nc(NC(=O)c3ccc(N4CCN(C)CC4)cc3)c2C1)c1ccccc1 (stereo unspecified)", 0.0),
    ("CC1(C)CC[C@]2(C(=O)O)CC[C@]3(C)C(=CCC4[C@@]5(C)CC[C@H](O[C@@H]6O[C@H](CO)[C@@H](O)[C@H](O)[C@H]6O[C@@H]6O[C@H](CO)[C@@H](O)[C@H](O)[C@H]6O)[C@@](C)(CO)C5CC[C@]43C)[C@@H]2C1 (stereo partly specified)", 0.0),
    ("NCc1c[nH]c(=S)n1[C@@H]1CCc2c(F)cc(F)cc2C1", 0.0),
    ("CC(C)c1nnc(-c2ccc(-c3ccccc3)nc2)n1-c1cccc2nonc12", 0.0),
    ("C=C1C(OC(=O)/C(C)=C\\C)[C@@]23CCC4[C@@](C)(CCC[C@@]4(C)C(=O)O)C2CC[C@H]1C3OC(C)=O (stereo partly specified)", 0.0),
    ("C=CC(C)(O)C(O)CC1C(C)(O)C(O)C(O)C2C(C)(C)CCCC21C (stereo unspecified)", 0.0),
    ("CNC(C)C(=O)NC(C(=O)N1CCCC1c1nc(C(=O)c2ccc(F)cc2)cs1)C1CCCCC1 (stereo unspecified)", 0.0),
    ("C=C1C[C@]23C[C@H]1CC[C@H]2[C@]1(C)CCC[C@@](C)(C(=O)O)[C@H]1[C@@H]3C(=O)O", 0.0),
    ("COc1cc(O)c2c(c1)C1=C[C@H](O)[C@@H](O)C[C@]1(C)OC2=O", 0.0),
    ("CC(=O)c1ccc2c(c1)C(O)C(C(C)(C)O)O2 (stereo unspecified)", 0.0),
    ("CC1=C(/C=C/C(C)=C\\C=C\\C(C)=C/C(=O)O)C(C)(C)CCC1", 0.0),
    ("COC(=O)C(C)C1CCC2(C)C(=O)C=CC(C)(O)C2C1O (stereo unspecified)", 0.0),
    ("O=C(COc1cccc2c(=O)[nH]ccc12)c1ccccc1", 0.0),
    ("C=C1C(=O)O[C@H](CCC)[C@H]1C(=O)O", 0.0),
    ("CC(C)c1cc(CNc2nc(Nc3cc(C4CC4)[nH]n3)cc(N3CCN(C)CC3)n2)on1", 1.0),
    ("CC1CCC23COC(=O)C2=CC(O)CC3C1(C)CCC1=CC(O)OC1=O (stereo unspecified)", 0.0),
    ("Nc1ccccc1N", 1.0),
]

* * *

Test system: HEK293
test: Cytotoxic Profiling of Annotated Libraries Using Quantitative High-Throughput Screening (AID 1296008); note: % is set by controls: 0 for no effect and ±100 for the full control effect; nearly all actives have a fitted effect of over 60% in size
run.conditions: Five cell lines viability, CellTiter-Glo ATP luminescence, 48-72 h; stronger effect = lower value
Inconclusive results are not listed.
Below: a set of entries, each annotated with reported max response.
test.readout: max response (%)

# compound, target.under.test, test.readout, reported.measurement
measured = [
    ("C[C@@H]1N[C@H]2N(C1=O)c1ccccc1[C@@]2(O)C[C@@H]1C(=O)N[C@@H](C)c2nc3ccccc3c(=O)n21", "HEK293", "max response", -21.5),
    ("C=C(C(=O)O)C1CC2=C(C)CCCC2(C)C[C@@H]1O (stereo partly specified)", "HEK293", "max response", -3),
    ("CC(=O)OC[C@H]1O[C@H](O[C@]2(CO)O[C@H](CO)[C@@H](OC(=O)/C=C/c3ccccc3)[C@@H]2O)[C@H](O)[C@@H](O)[C@@H]1O", "HEK293", "max response", 2.62),
    ("C[C@@H]1CC[C@]2(C(=O)O[C@@H]3O[C@H](CO)[C@@H](O)[C@H](O)[C@H]3O)CC[C@]3(C)C(=CCC4[C@@]5(C)C[C@@H](O)[C@H](O)[C@@](C)(C(=O)O[C@H]6[C@H](O)C[C@@]7(C)C(CC[C@]8(C)C7CC=C7[C@H]9[C@](C(=O)O[C@@H]%10O[C@H](CO)[C@@H](O)[C@H](O)[C@H]%10O)(CC[C@@H](C)[C@@]9(C)O)CC[C@]78C)[C@@]6(CO)C(=O)O)C5CC[C@]43C)[C@@H]2[C@]1(C)O (stereo partly specified)", "HEK293", "max response", -9.28),
    ("COC(=O)CCSCc1ccc(-c2onc(C)c2NC(=O)OC(C)c2ccccc2Cl)cc1 (stereo unspecified)", "HEK293", "max response", -7.48),
    ("CC1C(OC(=O)c2ccccc2)C(O)C2C(C(=O)O)=COC(OC3OC(CO)C(O)C(O)C3O)C12 (stereo unspecified)", "HEK293", "max response", -0.0764),
]

* * *

Tested on: Tov112D
test: Primary qHTS to identify gynecologic anti-cancer compounds using libraries of approved drugs and bioactive compounds (AID 1345084); note: nearly all actives have a fitted effect of over 55% in size
run.conditions: Gynecologic cancer cell panel viability, ATPlite luminescence, 48 h; series mostly up to 57.5 µM
Results filed as inconclusive are left out. Active and inactive are the calls of the source. Calls come from the whole dose curve; as a rule, active = well fitted cell-killing curve with a large enough effect; inconclusive = small, poorly fitted or top-dose-only effect, or effect the other way; inactive = flat fitted curve, though single readings scatter.
Classes used: active, inactive

# compound, label
rows = [
    ("C=C(C)C(=O)OC1CC2(C)OC(=CC2=O)C(=C)CC2OC(=O)C(COC)C12 (stereo not drawn)", "inactive"),
    ("CCCOc1ccc(-c2nc(OC)c3ccccc3n2)cc1", "inactive"),
    ("CC1(C)C2CC=C(COC3OC(COC4OCC(O)(CO)C4O)C(O)C(O)C3O)C1C2 (stereo not drawn)", "inactive"),
    ("O=C(Nc1ccc(-c2ccncc2)cc1)N[C@H](CO)c1ccccc1", "inactive"),
    ("O=C1OCC(c2ccccc2)=C1Cc1ccccc1", "inactive"),
    ("CC(=O)O[C@@H]1[C@@H](CO)O[C@@](CO)(O[C@H]2O[C@H](COC(=O)/C=C/c3ccccc3)[C@@H](O)[C@H](O)[C@H]2O)[C@H]1O", "inactive"),
    ("COC(=O)c1ccc(OC(CO)C(O)c2ccc(O)c(OC)c2)c(OC)c1 (stereo not drawn)", "inactive"),
    ("NC(=O)C(CCC(F)(F)F)N(Cc1ccc(-c2ncon2)cc1F)S(=O)(=O)c1ccc(Cl)cc1 (stereo not drawn)", "inactive"),
    ("CC(C)(C(=O)NCC(F)(F)C(F)(F)F)C(=O)NC1C(=O)Nc2ccccc2-c2ccccc21 (stereo not drawn)", "inactive"),
    ("CCOc1cc(C)c(Cl)cc1S(=O)(=O)n1cnc2ccccc21", "inactive"),
    ("COc1ccc([C@H]2CNC(=O)C2)cc1OC1CCCC1", "inactive"),
    ("CC1COC2(OC3CC4C5CC(O[C@@H]6O[C@H](C)[C@@H](O[C@@H]7O[C@@H](C)[C@H](O)[C@@H](O)[C@H]7O)[C@H](O)[C@H]6O)C6CC(O)CCC6(C)C5CCC4(C)C3C2C)C(O)C1 (stereo partly drawn)", "inactive"),
    ("O=C(CN1C(=O)C2(CCCC2)NCC1c1cc(F)cc(F)c1)Nc1ccc2c(c1)CC1(C2)C(=O)Nc2ncccc21 (stereo not drawn)", "inactive"),
    ("C[C@H](NC(=O)CCc1nc2ccccc2c(=O)[nH]1)c1ccccc1", "inactive"),
    ("C=C(C)C(=O)O[C@H]1C[C@@](C)(O)C(=O)CC(O)/C(C)=C\\[C@H]2OC(=O)C(=C)[C@H]12 (stereo partly drawn)", "inactive"),
    ("O=C(O)c1cc(I)ccc1NC(=O)[C@H](Cc1ccccc1)NCc1ccccc1", "inactive"),
    ("CC(C)(C)NC(=O)[C@@H](c1cccnc1)N(C(=O)c1ccco1)c1ccc(C(C)(C)C)cc1", "inactive"),
    ("CC(=O)OC1C(c2ccccc2)CCC(c2ccccc2)C1OC(C)=O (stereo not drawn)", "inactive"),
    ("O=C(O)/C=C/c1cc2c(cc1O[C@@H]1O[C@H](CO)[C@@H](O)[C@H](O)[C@H]1O)OCO2", "inactive"),
    ("CC/C=C\\CCO[C@@H]1O[C@H](CO[C@@H]2OC[C@H](O)[C@H](O)[C@H]2O)[C@@H](O)[C@H](O)[C@H]1O", "inactive"),
    ("COc1ccc([C@@]2(O)c3c(ccc4c3OC(C)(CCC=C(C)C)C=C4)NC(=O)[C@@H]2OC)cc1 (stereo partly drawn)", "inactive"),
    ("COC(=O)C[C@H]1C(C)(C)[C@H](OC(C)=O)C2CC3=C4CC(=O)O[C@@H](c5ccoc5)[C@]4(C)CCC3[C@@]1(C)C2=O (stereo partly drawn)", "inactive"),
    ("Cc1cc(C)c2c(N)c(C(=O)NCc3ccc(Cl)cc3)sc2n1", "inactive"),
    ("CC(=O)c1cc(C(=O)N[C@@H](C)Cn2ccc(-c3ccc(C#N)c(Cl)c3)n2)[nH]n1", "inactive"),
    ("CN(C)C/C=C/C(=O)Nc1cccc(C(=O)Nc2cccc(Nc3ncc(Cl)c(-c4c[nH]c5ccccc45)n3)c2)c1", "active"),
    ("O=C(/C=C/c1ccccc1)OC[C@]12O[C@H]1[C@@H](O)[C@@H]1C=CO[C@@H](O[C@@H]3O[C@H](CO)[C@@H](O)[C@H](O)[C@H]3O)[C@@H]12", "inactive"),
    ("c1ccc(-c2csc(N3CCOCC3)n2)cc1", "inactive"),
    ("Nc1nc2c(c(=O)[nH]1)C[C@@H](CCc1ccc(C(=O)N[C@@H](CCC(=O)O)C(=O)O)cc1)CN2", "active"),
    ("COC(=O)C1=CO[C@@H](O[C@@H]2O[C@H](CO)[C@@H](O)[C@H](O)[C@H]2O)[C@@H]2[C@@](C)(O)[C@@H](OC(=O)/C=C/c3ccc(O)cc3)C[C@]12O", "inactive"),
    ("C/C(=C\\CCC(C)CCO)C(=O)O[C@@H]1[C@@H](O)[C@H](OC2OC=C(C(=O)O)C3CCC(C)(O)C23)O[C@H](CO)[C@H]1O (stereo partly drawn)", "inactive"),
    ("C/C=C/c1ccc2c(c1)[C@@H](C)[C@H](c1ccc(O)cc1)O2", "inactive"),
    ("Nc1ncnc2c1ncn2CCNCCCCCO", "inactive"),
    ("COc1ccc(/C=C/C(=O)O[C@H]2[C@H](O[C@H]3[C@@H]4C=CO[C@@H](O[C@@H]5O[C@H](CO)[C@@H](O)[C@H](O)[C@H]5O)[C@@H]4[C@@]4(CO)O[C@@H]34)O[C@@H](C)[C@H](O)[C@H]2OC(C)=O)cc1", "inactive"),
]
